- test.target: hDUOX2_1–599 (Homo sapiens)
- Sequence (Q9NRD8 1-599): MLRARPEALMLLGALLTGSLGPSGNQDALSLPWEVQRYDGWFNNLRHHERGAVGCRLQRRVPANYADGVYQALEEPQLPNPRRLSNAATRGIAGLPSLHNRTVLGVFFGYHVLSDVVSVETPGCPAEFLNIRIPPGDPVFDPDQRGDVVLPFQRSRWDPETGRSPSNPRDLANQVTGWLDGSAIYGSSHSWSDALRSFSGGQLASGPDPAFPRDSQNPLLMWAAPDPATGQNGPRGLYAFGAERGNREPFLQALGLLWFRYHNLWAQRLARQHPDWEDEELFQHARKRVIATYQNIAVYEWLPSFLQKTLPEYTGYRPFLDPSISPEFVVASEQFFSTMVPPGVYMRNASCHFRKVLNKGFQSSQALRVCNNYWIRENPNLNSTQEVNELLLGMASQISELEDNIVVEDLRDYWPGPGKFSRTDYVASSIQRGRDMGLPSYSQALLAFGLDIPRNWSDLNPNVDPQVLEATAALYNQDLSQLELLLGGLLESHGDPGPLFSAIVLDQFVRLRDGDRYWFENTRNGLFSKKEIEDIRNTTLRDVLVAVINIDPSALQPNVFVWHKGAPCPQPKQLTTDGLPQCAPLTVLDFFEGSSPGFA
measure.name: pKd
Lab note — pKd values are minus log10 of concentrations in M.

Exercise: Give pKd for C=CC1=C(C)C2=Cc3c(C=C)c(C)c4[n]3[Fe]([Cl])[n]3c(c(C)c(CCC(=O)O)c3=CC3=NC(=C4)C(C)=C3CCC(=O)O)=CC1=N2 [heme]
Solution: 5.62
